molecular target: Full length human recombinant PIKFYVE (Homo sapiens, UniProt Q9Y2I7); construct: Full length human recombinant PIKFYVE; assay: Inhibition of PIKfyve (microfluidic electrophoresis kinase assay, PI3P/PS substrate); conditions: 12 concentrations
Sequence (Q9Y2I7 whole entry): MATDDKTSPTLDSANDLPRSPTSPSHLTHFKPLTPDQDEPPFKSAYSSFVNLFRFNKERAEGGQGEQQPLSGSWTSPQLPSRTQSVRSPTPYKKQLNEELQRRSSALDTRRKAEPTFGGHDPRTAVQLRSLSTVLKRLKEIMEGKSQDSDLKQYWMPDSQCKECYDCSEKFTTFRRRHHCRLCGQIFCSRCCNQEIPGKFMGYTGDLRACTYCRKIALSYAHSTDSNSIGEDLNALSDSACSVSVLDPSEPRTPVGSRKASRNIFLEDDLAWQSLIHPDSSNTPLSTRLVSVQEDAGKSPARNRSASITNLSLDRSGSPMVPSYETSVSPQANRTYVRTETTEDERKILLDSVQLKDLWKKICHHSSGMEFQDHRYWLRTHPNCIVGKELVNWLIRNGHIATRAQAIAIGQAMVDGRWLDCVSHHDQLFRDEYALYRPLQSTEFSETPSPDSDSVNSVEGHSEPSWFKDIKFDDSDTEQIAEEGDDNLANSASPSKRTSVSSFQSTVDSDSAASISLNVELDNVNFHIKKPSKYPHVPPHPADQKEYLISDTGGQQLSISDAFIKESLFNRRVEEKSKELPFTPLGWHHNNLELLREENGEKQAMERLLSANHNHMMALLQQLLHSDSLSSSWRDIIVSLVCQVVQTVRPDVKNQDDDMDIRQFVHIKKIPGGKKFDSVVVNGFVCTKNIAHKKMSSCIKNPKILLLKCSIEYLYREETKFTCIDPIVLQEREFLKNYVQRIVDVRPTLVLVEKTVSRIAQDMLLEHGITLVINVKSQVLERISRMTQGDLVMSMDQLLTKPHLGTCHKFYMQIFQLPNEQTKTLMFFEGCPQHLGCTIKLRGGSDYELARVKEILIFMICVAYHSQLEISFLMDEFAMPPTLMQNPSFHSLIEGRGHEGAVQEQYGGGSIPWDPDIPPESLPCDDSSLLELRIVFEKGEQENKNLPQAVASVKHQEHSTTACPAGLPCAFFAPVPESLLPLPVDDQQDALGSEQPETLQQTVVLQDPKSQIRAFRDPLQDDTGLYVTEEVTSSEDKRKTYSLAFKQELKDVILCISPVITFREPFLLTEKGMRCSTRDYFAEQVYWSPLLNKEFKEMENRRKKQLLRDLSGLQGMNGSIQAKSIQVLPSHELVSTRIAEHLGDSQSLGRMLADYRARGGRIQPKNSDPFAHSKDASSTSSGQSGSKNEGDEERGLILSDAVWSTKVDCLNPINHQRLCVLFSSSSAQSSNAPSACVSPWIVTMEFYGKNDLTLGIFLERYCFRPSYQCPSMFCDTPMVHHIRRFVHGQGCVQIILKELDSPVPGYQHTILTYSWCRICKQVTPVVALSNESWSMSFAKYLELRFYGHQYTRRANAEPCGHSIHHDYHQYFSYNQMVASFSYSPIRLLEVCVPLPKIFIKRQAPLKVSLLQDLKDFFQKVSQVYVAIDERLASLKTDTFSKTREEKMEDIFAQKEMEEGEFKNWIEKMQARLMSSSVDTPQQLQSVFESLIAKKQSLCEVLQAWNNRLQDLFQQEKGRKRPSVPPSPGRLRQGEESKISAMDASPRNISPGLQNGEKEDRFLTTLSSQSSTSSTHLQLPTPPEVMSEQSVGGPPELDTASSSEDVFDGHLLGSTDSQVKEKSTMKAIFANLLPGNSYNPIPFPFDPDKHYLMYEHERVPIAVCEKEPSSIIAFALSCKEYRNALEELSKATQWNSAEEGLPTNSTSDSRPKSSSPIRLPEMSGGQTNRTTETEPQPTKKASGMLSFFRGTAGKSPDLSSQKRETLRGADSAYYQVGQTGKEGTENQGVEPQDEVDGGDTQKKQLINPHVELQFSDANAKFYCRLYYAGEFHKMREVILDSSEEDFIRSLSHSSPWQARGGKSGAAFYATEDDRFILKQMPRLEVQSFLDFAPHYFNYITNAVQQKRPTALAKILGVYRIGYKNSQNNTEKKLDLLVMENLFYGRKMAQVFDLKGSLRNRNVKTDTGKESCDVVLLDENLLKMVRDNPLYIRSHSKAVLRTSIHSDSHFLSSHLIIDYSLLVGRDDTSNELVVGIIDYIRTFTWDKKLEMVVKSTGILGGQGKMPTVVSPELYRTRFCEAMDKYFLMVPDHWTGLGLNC
pIC50: −log10 of the molar value. Counter-ions that a name gives are not always drawn.
Property Measured: pIC50

I: c1cncc(-c2cc3nc(Nc4cc(-c5ccncc5)n[nH]4)nc(N4CCOCC4)c3o2)c1 [Compound 31]
II: c1cc(-c2cc3nc(Nc4cc(CC5CCC5)n[nH]4)nc(N4CCOCC4)c3o2)ccn1 [Compound 71]
III: Cc1cccc(-c2ccn(-c3nc(N4CCOCC4)c4oc(-c5cc(C)no5)cc4n3)n2)c1 [Compound 204]
Rank the 3 compounds shown above by pIC50, smallest number first. Write the labels out in the order the request specifies.
I, II, III

1: COCCNC(=O)c1cc2nc(-n3cc(-c4ccccc4)cn3)nc(N3CCOCC3)c2o1 [Compound 118]
2: Cc1cccc(-c2cnn(-c3nc(N4CCOCC4)c4oc(C(=O)NC5CCOC5)cc4n3)c2)c1 (centres unmarked) [Compound 126]
3: CNC(=O)c1cc2nc(-n3ccc(-c4cccc(C)c4)n3)nc(N3CCOCC3)c2o1 [Compound 92]
Order the 3 compounds from highest to lowest pIC50. Write the labels out in the order the request specifies.
2, 3, 1

A: CN1CCCC(c2cc3nc(Nc4cc(-c5ccccc5)n[nH]4)nc(N4CCOCC4)c3o2)C1 (centres unmarked) [Compound 35, hydrochloride]
B: c1ccc(-c2cc(Nc3nc(N4CCOCC4)c4oc(-c5cccnc5)cc4n3)[nH]n2)cc1 [Compound 29]
// pick larger pIC50 from pair: A vs B Answer by quoting the chosen item's label.
B
(B: 9.00, A: 6.69)

* * *

target: Full length human recombinant PIKFYVE (Homo sapiens, UniProt Q9Y2I7); construct: Full length human recombinant PIKFYVE; purchased Carna Biosciences (Kobe, Japan); host or cells: baculovirus expression system; assay: Inhibition of PIKfyve (microfluidic electrophoresis kinase assay, PI3P/PS substrate); format: biochemical; details: 12 concentrations
Property Measured: IC50 (nM)

CC(C)c1cc(Nc2nc(N3CCOCC3)c3oc(-c4ccncc4)cc3n2)[nH]n1 :: 175

1: Cc1ccnc(-c2cc(Nc3nc(N4CCOCC4)c4oc(-c5ccncc5)cc4n3)[nH]n2)c1
2: O=C(NC1CCOCC1)c1cc2nc(-n3cc(-c4ccccc4)cn3)nc(N3CCOCC3)c2o1
// pick larger IC50 from pair: 1 vs 2 Answer by quoting the chosen item's label.
2
(2: 39.2 nM, 1: 27 nM)

P: Cc1cccc(-c2cc(Nc3nc(N4CCOCC4)c4oc(C5CCN(C)CC5)cc4n3)[nH]n2)c1
Q: Cc1cccc(-c2cnn(-c3nc(N4CCOCC4)c4oc(-c5cc(C)n(CCNC(=O)CCl)n5)cc4n3)c2)c1
R: Cc1cccc(-c2ccn(-c3nc(N4CCOCC4)c4oc(-c5ccccn5)cc4n3)n2)c1
S: Fc1cccc(-c2cc(Nc3nc(N4CCOCC4)c4occc4n3)[nH]n2)c1
T: Cc1cccc(-c2ccn(-c3nc(N4CCOCC4)c4oc(-c5ccncc5)cc4n3)n2)c1
Order the 5 compounds from highest to lowest IC50. Write the labels out in the order the request specifies.
S, P, T, R, Q
(S: 451 nM, P: 59 nM, T: 19 nM, R: 3.9 nM, Q: 0.6 nM)

A: c1ccc(-c2cc(Nc3nc(N4CCOCC4)c4oc(-c5ccncc5)cc4n3)[nH]n2)nc1
B: CN1CCC(c2cc3nc(Nc4cc(-c5ccccc5)n[nH]4)nc(N4CCOCC4)c3o2)C1 (stereo not shown)
C: c1cc(-c2cc3nc(Nc4cc(-c5ccsc5)n[nH]4)nc(N4CCOCC4)c3o2)ccn1
Put the compounds in ascending order of IC50. Write the labels out in the order the request specifies.
C, A, B

* * *

molecular target: Full length human recombinant PIKFYVE (Homo sapiens); construct: Full length human recombinant PIKFYVE; purchased Carna Biosciences (Kobe, Japan); host or cells: baculovirus expression system; assay: Inhibition of PIKfyve (microfluidic electrophoresis kinase assay, PI3P/PS substrate); format: biochemical; settings: 12 concentrations
Structures can show the parent of a compound that is named as a salt.
Property Measured: IC50 (nM)

Take a look at these entries with their results.
CN1CCC(c2cc3nc(Nc4cc(-c5ccncc5)n[nH]4)nc(N4CCOCC4)c3o2)CC1 [Compound 34, hydrochloride] :: 10
CN1CCN(Cc2cc3nc(Nc4cc(-c5ccccc5)n[nH]4)nc(N4CCOCC4)c3o2)CC1 :: 71
CCNC(=O)c1cc2nc(-n3cc(-c4ccccc4)cn3)nc(N3CCOCC3)c2o1 :: 77.3
Cc1cccc(-c2ccn(-c3nc(N4CCOCC4)c4oc(-c5cccnc5)cc4n3)n2)c1 :: 7.7

a: c1cc(-c2cc3nc(Nc4cc(C5CC5)n[nH]4)nc(N4CCOCC4)c3o2)ccn1
b: Cn1ccc(-c2cc3nc(-n4ccc(-c5ccccc5)n4)nc(N4CCOCC4)c3o2)n1
// task: argmin of IC50 over [ a , b ] Answer by quoting the chosen item's label.
b
(b: 51.9 nM, a: 185 nM)

* * *

Target: Full length human recombinant PIKFYVE (Homo sapiens, UniProt Q9Y2I7)
Construct: Full length human recombinant PIKFYVE
Assay: Inhibition of PIKfyve (microfluidic electrophoresis kinase assay, PI3P/PS substrate)
Details: 12 concentrations
Method: Full length human recombinant PIKFYVE expressed in baculovirus expression system as N-terminal GST-fusion protein (265 kDa) was obtained from Carna Biosciences (Kobe, Japan). […] The kinase reactions were assembled in 384-well plates (Greiner) in a total volume of 20 mL as follows. […] Terminated plates were analyzed on a microfluidic electrophoresis instrument (Caliper LabChip® 3000, Caliper Life Sciences/Perkin Elmer). […] Percent inhibition (Pinh) was determined using the following equation: […]
pIC50: −log10 of the molar value.
Property Measured: pIC50

CN(C)CCCCNC(=O)c1cc2nc(-n3cc(-c4ccccc4)cn3)nc(N3CCOCC3)c2o1 [Compound 167] :: 6.91
Cc1cncc(-c2cc(Nc3nc(N4CCOCC4)c4oc(-c5ccncc5)cc4n3)[nH]n2)c1 [Compound 23] :: 6.71
c1ccc(-c2cc3nc(Nc4cc(-c5ccncc5)n[nH]4)nc(N4CCOCC4)c3o2)nc1 [Compound 28] :: 6.17
O=C(c1cc2nc(Nc3cc(-c4ccccc4)[nH]n3)nc(N3CCOCC3)c2o1)N1CCCC1 [Compound 54] :: 7.18
Cc1cccc(-c2cnn(-c3nc(N4CCOCC4)c4oc(-c5ccncc5)cc4n3)c2)c1 [Compound 42] :: 8.05

a: Cc1cncc(-c2ccn(-c3nc(N4CCOCC4)c4oc(-c5ccccn5)cc4n3)n2)c1 [Compound 200]
b: Cc1ccccc1-c1cc(Nc2nc(N3CCOCC3)c3oc(-c4ccncc4)cc3n2)[nH]n1 [Compound 2]
// task: argmin of pIC50 over [ a , b ] Answer by quoting the chosen item's label.
a

* * *

molecular target: Full length human recombinant PIKFYVE (Homo sapiens); construct: Full length human recombinant PIKFYVE; experiment: Inhibition of PIKfyve (microfluidic electrophoresis kinase assay, PI3P/PS substrate); details: 12 concentrations
pIC50: −log10 of the molar value. Structures can show the parent of a compound that is named as a salt.
Property Measured: pIC50

CN1CCN(C(=O)c2cc3nc(Nc4cc(-c5ccccc5)[nH]n4)nc(N4CCOCC4)c3o2)CC1 :: 7.03

a: CNC(=O)c1cc2nc(Nc3cc(-c4ccsc4)n[nH]3)nc(N3CCOCC3)c2o1
b: c1ccc(-c2cc(Nc3nc(N4CCOCC4)c4oc(CN5CCOCC5)cc4n3)[nH]n2)cc1 [Compound 12, hydrochloride]
c: Cc1cccc(-c2cnn(-c3nc(N4CCOCC4)c4oc(C(=O)NC5COC5)cc4n3)c2)c1
Put the compounds in ascending order of pIC50. Write the labels out in the order the request specifies.
b, a, c

* * *

target: Full length human recombinant PIKFYVE (Homo sapiens); construct: Full length human recombinant PIKFYVE; assay: Inhibition of PIKfyve (microfluidic electrophoresis kinase assay, PI3P/PS substrate); conditions: 12 concentrations
pIC50: −log10 of the molar value.
Property Measured: pIC50

1: CNC(=O)c1cc2nc(Nc3cc(-c4cccs4)n[nH]3)nc(N3CCOCC3)c2o1
2: C[C@H](NC(=O)c1cc2nc(-n3cc(-c4ccccc4)cn3)nc(N3CCOCC3)c2o1)C1CC1
3: c1cc(-c2cc3nc(Nc4cc(C5CCC5)n[nH]4)nc(N4CCOCC4)c3o2)ccn1
Rank the 3 compounds shown above by pIC50, smallest number first. Write the labels out in the order the request specifies.
3, 1, 2
(3: 6.85, 1: 7.16, 2: 8.02)

P: CN(C)CCCNC(=O)c1cc2nc(-n3cc(-c4ccccc4)cn3)nc(N3CCOCC3)c2o1
Q: Cc1cc(-c2cc3nc(-n4cc(-c5ccccc5)cn4)nc(N4CCOCC4)c3o2)nn1CCN(C)C
R: O=C(c1cc2nc(Nc3cc(-c4ccccc4)[nH]n3)nc(N3CCOCC3)c2o1)N1CCOCC1
Put the compounds in ascending order of pIC50. Write the labels out in the order the request specifies.
R, P, Q

Cited source: patent US20230146395A1
